biological target: T1, recombinant human CSF-1R (form not stated) (human, UniProt P07333 20-512, limits assumed); experiment: BIAcore, experiment 1 of 3
T1 construct: for the ELISA no species is stated; also called recombinant CSF-1R; recombinant CSF-1R protein
T1 sequence (P07333 20-512 limits assumed): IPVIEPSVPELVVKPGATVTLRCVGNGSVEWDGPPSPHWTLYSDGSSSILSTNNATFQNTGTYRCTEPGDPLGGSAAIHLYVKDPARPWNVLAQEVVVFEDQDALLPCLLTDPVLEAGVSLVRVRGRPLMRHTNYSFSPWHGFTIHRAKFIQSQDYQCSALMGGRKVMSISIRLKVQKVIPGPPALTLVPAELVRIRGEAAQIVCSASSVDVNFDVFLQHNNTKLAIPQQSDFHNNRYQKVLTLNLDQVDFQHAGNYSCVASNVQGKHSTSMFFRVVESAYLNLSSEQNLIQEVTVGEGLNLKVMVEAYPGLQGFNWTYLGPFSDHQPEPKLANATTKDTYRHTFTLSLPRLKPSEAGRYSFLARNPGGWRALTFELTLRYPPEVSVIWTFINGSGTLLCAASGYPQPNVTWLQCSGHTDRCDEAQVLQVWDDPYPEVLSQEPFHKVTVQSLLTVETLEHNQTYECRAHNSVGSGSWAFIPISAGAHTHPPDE

>  <Binder>
chimeric antibody 969 (rat variable regions, human gamma-4 heavy chain constant region and human kappa chain constant region) (antibody, human IgG4, V domains shown, Alexa-488 label in the cell-based affinity assay; not carried by the letters., Full-length human IgG4 (S241P)/kappa chimeric; also called Ab969) VH: QVTLKESGPGILQPSQTLSLTCTFSGFSLTTYGMGVGWIRQPSGKGLEWLANIWWDDDKYYNPSLKNRLTISKDTSNNQAFLKLTNVHTSDSATYYCARIGPIKYPTAPYRYFDFWGPGTMVTVSS VL: DIQMTQSPASLSASLGETVSIECLASEDIYDNLAWYQKKPGKSPHLLIYYASSLQDGVPSRFSGSGSGTQYSLKINSLESEDAATYFCLQDSEYPWTFGGGTKLELKR

>  <Measurement unit>
pM

>  <Kd>
3.6

$$$$
>  <Binder>
969gH2gL8 (antibody, human IgG4 S228P, kappa, name in Kabat numbering, V domains shown, Humanised IgG4 (S241P)/kappa, no donor residues; position is Kabat; also called Ab969.g4) VH: EVTLKESGPALVKPTQTLTLTCTFSGFSLTTYGMGVGWIRQPPGKALEWLANIWWDDDKYYNPSLKNRLTISKDTSKNQVVLTMTNMDPVDTATYYCARIGPIKYPTAPYRYFDFWGQGTMVTVSS VL: DIQMTQSPSSLSASVGDRVTITCLASEDIYDNLAWYQQKPGKAPKLLIYYASSLQDGVPSRFSGSGSGTDFTLTISSLQPEDFATYYCLQDSEYPWTFGGGTKVEIKR

>  <Measurement unit>
pM

>  <Kd>
2.5

$$$$
